Data credit: the supplement of paper PMC10126150

- Test system: ATP;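 also: ATP exposure 15 min at 22 °C before imaging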
- assay_comment: switch fluorescence ratio, 500 uM ATP over buffer (Cy3 cluster intensity, sum of 5 cycles each) (fold (ratio)); higher = stronger signal-on switching upon ATP binding; sequences stand for … in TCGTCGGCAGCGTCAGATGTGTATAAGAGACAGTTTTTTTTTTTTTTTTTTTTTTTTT…TC
- conditions: aptamer strand: ATP DNA aptamer (quencher-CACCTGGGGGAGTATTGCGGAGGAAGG + anchor), 100 nM annealed; ATP concentration: 500 uM
measured_metric: switch fluorescence ratio
Just the number.

// below: answered sequences
[
  {
    "sequence_code": "CGCTAAAGGG",
    "test_system": "ATP",
    "switch fluorescence ratio": 1.04
  },
  {
    "sequence_code": "TTGAGTTCGG",
    "test_system": "ATP",
    "switch fluorescence ratio": 0.986
  },
  {
    "sequence_code": "GCCAAATTTT",
    "test_system": "ATP",
    "switch fluorescence ratio": 0.955
  }
]

The recorded switch fluorescence ratio for entry GGTTTTTTAT equals 1.02

The recorded switch fluorescence ratio for entry TTTAGTCATG equals 0.977

The recorded switch fluorescence ratio for entry GGTAGAGTTG equals 0.976

The recorded switch fluorescence ratio for entry GCAAAAAGGC equals 1.03

The recorded switch fluorescence ratio for entry GGGTCCGAGA equals 1.31

The recorded switch fluorescence ratio for entry CCTCAAAGGG equals 1.38

The recorded switch fluorescence ratio for entry TTGGTTGTAG equals 1.01

The recorded switch fluorescence ratio for entry ACAATGGCAC equals 1.06

The recorded switch fluorescence ratio for entry CATTGAAATT equals 0.968

The recorded switch fluorescence ratio for entry TTCCATGTCG equals 0.958

* * *

- Test system: ATP;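 also: ATP exposure 15 min at 22 °C before imaging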
- assay_comment: switch fluorescence ratio, 500 uM ATP over buffer (Cy3 cluster intensity, sum of 5 cycles each) (fold (ratio)); higher = stronger signal-on switching upon ATP binding; sequences stand for … in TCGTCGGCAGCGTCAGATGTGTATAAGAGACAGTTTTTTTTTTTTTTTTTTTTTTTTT…TC
- conditions: aptamer strand: ATP DNA aptamer (quencher-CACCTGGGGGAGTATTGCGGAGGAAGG + anchor), 100 nM annealed; ATP concentration: 500 uM
measured_metric: switch fluorescence ratio
Just the number.

// below: answered sequences
[
  {
    "sequence_code": "CGTACAATGG",
    "switch fluorescence ratio": 1.28
  },
  {
    "sequence_code": "CCAAGCGGTA",
    "switch fluorescence ratio": 1.3
  },
  {
    "sequence_code": "ACATGTGGAT",
    "switch fluorescence ratio": 0.996
  },
  {
    "sequence_code": "GGGGTCAGTC",
    "switch fluorescence ratio": 0.993
  },
  {
    "sequence_code": "CCGTTCCCGT",
    "switch fluorescence ratio": 1.13
  },
  {
    "sequence_code": "AGTAAAAATG",
    "switch fluorescence ratio": 0.982
  },
  {
    "sequence_code": "TGACGGGGGC",
    "switch fluorescence ratio": 1.01
  },
  {
    "sequence_code": "AGGATAGGGG",
    "switch fluorescence ratio": 0.991
  }
]

Now take the following sequence into account.
The recorded switch fluorescence ratio for entry GCGATTTTAA equals 1.02
